Data provenance: ChEMBL document CHEMBL5137116

- METHOD: Selectivity index, ratio of CC50 for cytotoxicity against dog MDCK cells to IC50 for antiviral activity against Influenza A virus A/WSN/33(H1N1) infected in HEK293T cells
- Assay type: toxicity, cell-based
- TEST CONTEXT: read-out: Selectivity Index
QUANTITY NAME: selectivity ratio

Look up and report measured selectivity ratio for this entry: "O=C1/C=C/CCc2ccc(O)c(c2)-c2cc(ccc2O)C[C@H]1O"
> 12

---

- METHOD: Cytotoxicity against dog MDCK cells by MTT assay
- Assay type: toxicity, cell-based, Canis lupus familiaris
QUANTITY NAME: CC50 at 48 h

Tell me CC50 at 48 h reported for "O=C1/C=C/CCc2ccc(O)c(c2)-c2cc(ccc2O)C[C@H]1O"
> 100 µM
